Reported pIC50, GCN2 (Homo sapiens).
pIC50: −log10 of the molar value.

molecule="Cc1ccc(-c2cncc3nc(Nc4ccc(N5CCOCC5)cc4)nn23)o1 [Compound A55]" target_entity="GCN2 (Homo sapiens)" assay_endpoint=pIC50 meas_value="> 6.00"
molecule="CC(C)(C#N)c1ccc(-c2cncc3nc(Nc4ccc(N5CCOCC5)cc4)nn23)cc1 [Compound A34]" target_entity="GCN2 (Homo sapiens)" assay_endpoint=pIC50 meas_value="5.30 to 6.00"

State recorded pIC50 for all listed molecules.
1. c1cc(N2CCOCC2)ccc1Nc1nc2cncc(-c3ccc(CN4CCOCC4)s3)n2n1 [Compound A62]
2. Cc1cc(Nc2nc3cncc(-c4cnn(C)c4)n3n2)ccc1C(=O)NC1CC1 [Compound A71]
3. COc1cc(Nc2nc3cncc(-c4ccc(O)cc4)n3n2)ccc1N1CCN(C)CC1 [Compound A87]
4. Cc1ncc2nc(Nc3ccc(N4CCOCC4)cc3)nn2c1-c1cnn(C)c1 [Compound A44]

> 6.00
> 6.00
> 6.00
5.00 to 5.30

State recorded pIC50 for all listed molecules.
1. Cn1cc(-c2cncc3nc(Nc4ccc(S(C)(=O)=O)cc4)nn23)cn1 [Compound A11]
2. Cn1cc(-c2cncc3nc(Nc4ccc(-c5ccncc5)cc4)nn23)cn1 [Compound A60]

1: 5.30 to 6.00; 2: 5.30 to 6.00
